# ASSAY TEXT: Enzyme-coupled assay: transfer of acyl-moieties from MMal-CoA to the ACP
# Assay type: biochemical
# MEASUREMENT CONDITIONS: substrate MMal-CoA, acceptor ACP from murine FAS
QUANTITY MEASURED: Km
Could you kindly put the unit after your number?

Find the recorded Km belonging to Mutant A04: engineered murine acyltransferase, mutations T161A F184A K186A R286A (protein) NKRPLWFICSGMGTQWRGMGLSLMRLDSFRESILRSDEAVKPLGVKVSDLLLSTDERTFDDIVHAFVSLTAIQIALIDLLTSVGLKPDGIIGHSLGEVACGYADGCLSQREAVLAAYWRGQCIKDAHLPPGSMAAVGLSWEECKQRCPAGVVPACHNSEDAVTISGPQAAVNEFVEQLKQEGVAAAEVRTGGLAFHSYFMEGIAPTLLQALKKVIREPRPRSARWLSTSIPEAQWQSSLARTSSAEYNVNNLVSPVLFQEALWHIPEHAVVLEIAPHALLQAVLKAGVKSSCTIIPLMKRDHKDNLEFFLTNLGKVHLT and report it.
7.24 µM
